target: Recombinant human NRP1 with His Tag (Sino Biological Inc.; Cat #1001-H08H) (human), O14786
Sequence (O14786 other isoform, or with tags, fused parts or gaps H08H H08H limits assumed): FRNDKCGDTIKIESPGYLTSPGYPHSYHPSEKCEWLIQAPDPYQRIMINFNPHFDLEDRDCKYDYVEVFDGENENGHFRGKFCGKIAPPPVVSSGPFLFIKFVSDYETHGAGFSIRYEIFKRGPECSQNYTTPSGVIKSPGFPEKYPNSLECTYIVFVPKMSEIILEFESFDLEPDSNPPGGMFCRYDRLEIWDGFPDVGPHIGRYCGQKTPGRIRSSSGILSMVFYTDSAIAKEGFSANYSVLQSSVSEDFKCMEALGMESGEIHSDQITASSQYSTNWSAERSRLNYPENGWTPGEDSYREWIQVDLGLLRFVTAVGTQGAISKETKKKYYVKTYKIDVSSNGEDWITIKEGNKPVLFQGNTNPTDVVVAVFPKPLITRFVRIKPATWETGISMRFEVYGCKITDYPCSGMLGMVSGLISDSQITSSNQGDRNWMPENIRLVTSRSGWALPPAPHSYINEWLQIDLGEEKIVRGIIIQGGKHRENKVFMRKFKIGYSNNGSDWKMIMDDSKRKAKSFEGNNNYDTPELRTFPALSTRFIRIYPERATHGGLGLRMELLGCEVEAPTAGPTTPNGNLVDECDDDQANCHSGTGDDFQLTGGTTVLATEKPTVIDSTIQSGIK
Bridge positions count the residues as written; N and C are the ends. * marks the point of attachment. Biotin = O=C1N[C@H]2[C@H](CS[C@H]2CCCCC(=O)*)N1; Capped = not defined here
measure: Kd
Include the unit right after the number.

Entry under test: Biotin-CYGPQCLC(Capped)R-OH (disulfide 1-6; reading uncertain) [NH2(Biotin)-C-Y-G-P-Q-C-L-C(Capped)-R-COOH with S-S between the first two C] . Its Kd was 410 nM

These measurements were taken from patent US20200206312A1.
